Test: General cytotoxicity on HepG2 cells (CC50; therapeutic index CC50 HepG2/IC50 Mino)
Type: cell-based
Conditions: human, HepG2 cells (hepatocellular carcinoma); Table 10; 72 hours, Alamar Blue; average of several tests
REPORTED METRIC: CC50 at 72 h (µM)
Answer format: numeric, µM implied, no suffix.

Use the examples below as a reference point.
COMPOUND	CC50 at 72 h / µM
C=CC(=O)N1CCC[C@@H](n2nc(-c3cnc(-n4ccc(=O)cc4)nc3)c3c(N)ncc(Cl)c32)C1 [BCD-BTK-74]	100
C=CC(=O)N1CC(n2nc(-c3ccc(Oc4ccncc4)cc3)c3cncc(Cl)c32)C1 [BCD-BTK-282]	9.45
CC#CC(=O)N1CCC[C@@H](n2nc(-c3ccc(C(=O)Nc4ccccn4)cc3)c3cncc(Cl)c32)C1 [BCD-BTK-289]	18.8
C=CC(=O)N1CCC[C@@H](n2nc(-c3ccc(-n4ccc(=O)cc4)cc3)c3cncc(Cl)c32)C1 [BCD-BTK-30]	61.5
C=CC(=O)N1CCC[C@@H](n2nc(-c3cnc(C(=O)Nc4cccc(F)n4)nc3)c3cncc(Cl)c32)C1 [BCD-BTK-277]	41.9
C=CC(=O)N1CCC[C@@H](n2nc(-c3ccc(Oc4ccncc4)cc3)c3c(N)ncc(OC)c32)C1 [BCD-BTK-239]	60.2
C=CC(=O)N1CCC[C@@H](n2nc(-c3ccc(C(=O)Nc4ccccn4)cc3)c3c(N)nccc32)C1 [BCD-BTK-242]	52.5
C=CC(=O)N1CCC[C@@H](n2nc(-c3ccc(Oc4ccncc4)cc3)c3cncc(F)c32)C1 [BCD-BTK-211]	45.2
C=CC(=O)N1CCC[C@@H](n2nc(-c3ccc(Oc4cccnc4C#N)cc3)c3cncc(F)c32)C1 [BCD-BTK-230]	57.6
C=CC(=O)N1CCC[C@@H](n2nc(-c3ccc(Oc4cccnc4C#N)cc3)c3c(N)ncc(Cl)c32)C1 [BCD-BTK-236]	27.1

// field: CC50 at 72 h; key: C=CC(=O)N1CCC[C@@H](n2nc(-c3ccc(C(=O)Nc4cccc(F)n4)cc3)c3c(N)ncc(Cl)c32)C1 [BCD-BTK-250] ; value = 12.2

Source: patent US20190352276A1
